assay: Inhibition of Escherichia coli OXA1 class D beta-lactamase by spectrophotometry
Measured endpoint: log10 Ki (log10 of the value in µM)

[
  {
    "Compound": "O=C(CP(=O)(O)Oc1ccccc1)c1ccccc1 [SODIUM PHENYL PHENACYLPHOSPHONATE]",
    "log10 Ki": 3.02
  },
  {
    "Compound": "O=C(CP(=O)(O)OCc1ccccc1)c1ccc2[nH]c(=O)oc2c1",
    "log10 Ki": 2.43
  },
  {
    "Compound": "O=C(CP(=O)(O)Oc1ccccc1)c1c(F)c(F)c(F)c(F)c1F",
    "log10 Ki": 2.58
  },
  {
    "Compound": "Cc1onc(-c2ccccc2Cl)c1C(=O)CP(=O)(O)OCc1ccccc1",
    "log10 Ki": 2.63
  },
  {
    "Compound": "O=C(CP(=O)(O)OCc1ccccc1)c1nc2ccccc2s1",
    "log10 Ki": 2.23
  },
  {
    "Compound": "O=P(O)(CC(O)c1ccc(-c2ccccc2)cc1)OCc1ccccc1 (racemic)",
    "log10 Ki": 2.48
  },
  {
    "Compound": "O=C(CP(=O)(O)OCc1ccc(-c2ccccc2)cc1)c1ccc(-c2ccccc2)cc1",
    "log10 Ki": 0.78
  },
  {
    "Compound": "O=C(CP(=O)(O)OCc1ccccc1)c1ccccc1 [SODIUM BENZYL PHENACYLPHOSPHONATE]",
    "log10 Ki": 2.81
  },
  {
    "Compound": "O=P(O)(CC(O)c1ccccc1)OCc1ccccc1 (racemic)",
    "log10 Ki": 2.64
  },
  {
    "Compound": "O=C(CP(=O)(O)Oc1ccccc1)c1ccc(-c2ccccc2)cc1",
    "log10 Ki": 2.15
  },
  {
    "Compound": "O=C(CP(=O)(O)OCc1ccccc1)c1ccc(-c2ccccc2)cc1",
    "log10 Ki": 2.36
  },
  {
    "Compound": "O=C(CP(=O)(O)OCc1ccc(-c2ccccc2)cc1)c1ccccc1",
    "log10 Ki": 2.30
  }
]
